tested on: Mycobacterium tuberculosis; experiment: Antimycobacterial activity Mycobacterium tuberculosis H37Rv; type: functional, organism-based
RESULT_TYPE: IC50 (µg/mL)
Field format: number, assumed µg/mL, no unit text.

Input line: Form field: IC50 recorded for C[C@@]1(CCCCCCCCCc2ccc(O)cc2)C[C@]2(C)OC(=O)C[C@@H]2OO1 [PLAKORTOLIDE F] with Mycobacterium tuberculosis (enter value)
Output line: 59

Input line: And what about the compound CC/C=C/C=C/C=C/CCCCCCCC[C@]1(C)C[C@@](C)(CC(=O)OC)OO1 [EPIPLAKINIC ACID F METHYL ESTER] ?
Output line: 62

More entries:
Input line: Form field: IC50 recorded for CCCCCCCCCCCCCCCC[C@@](C)(O)C[C@]1(C)OC(=O)C[C@@H]1O with Mycobacterium tuberculosis (enter value)
Output line: 13

Input line: And what about the compound CCCCCCCCCCCCCCCC[C@]1(C)C[C@@](C)(O)CC(=O)O1 ?
Output line: 30

Input line: And what about the compound CC/C=C/C=C/C=C/CCCCCCCC[C@@]1(C)C[C@](C)(CC(=O)O)OO1 [EPIPLAKINIC ACID F] ?
Output line: 92

Input line: And what about the compound CCCCCCCCCCCCCCCC[C@]1(C)C[C@]2(C)OC(=O)C[C@@H]2OO1 ?
Output line: 68

Input line: And what about the compound CC/C=C/C=C/C=C/CCCCCCCC[C@]1(C)C[C@]2(C)OC(=O)C[C@@H]2OO1 [PLAKORTOLIDE J] ?
Output line: 71

* * *

We begin with a simple list: items and their reported IC50.
test system: Plasmodium falciparum; assay: Antimicrobial activity against chloroquine-resistant Plasmodium falciparum W2; assay type: functional, organism-based
Field format: number, assumed µg/mL, no unit text.

Input line: Query (compound): C[C@@](O)(CCCCCCCCCc1ccc(O)cc1)C[C@]1(C)OC(=O)C[C@@H]1O ; field requested: IC50
Output line: 7

Input line: And what about the compound CCCCCCCCCCCCCCCC[C@]1(C)C[C@]2(C)OC(=O)C[C@@H]2OO1 ?
Output line: 0.3

* * *

tested on: A2058; experiment: Cytotoxicity against human A2058 cells at 10 uM after 48 hrs […]; type: functional
Decide using Activity: a value greater than or equal to 80% is true (1), a smaller one is false (0).

Please review the entries below; each comes with its answer.
Input line: Identify whether the reported Activity of the following compound is 80% or greater: CC/C=C/C=C/C=C/CCCCCCCC[C@]1(C)C[C@@](C)(CC(=O)OC)OO1 [EPIPLAKINIC ACID F METHYL ESTER]
Output line: true (1)

Input line: And what about the compound CCCCCCCCCCCCCCCC[C@]1(C)C[C@@](C)(CC(=O)OC)OO1 ?
Output line: false (0)

Input line: And what about the compound C[C@@]1(CCCCCCCCCc2ccc(O)cc2)C[C@]2(C)OC(=O)C[C@@H]2OO1 [PLAKORTOLIDE F] ?
Output line: false (0)

More entries:
Input line: Identify whether the reported Activity of the following compound is 80% or greater: CCCCCCCCCCCCCCCC[C@]1(C)C[C@]2(C)OC(=O)C[C@@H]2OO1
Output line: false (0)

Input line: And what about the compound CCCCCCCCCCCCCCCC[C@]1(C)C[C@@](C)(O)CC(=O)O1 ?
Output line: false (0)

Input line: And what about the compound CC/C=C/C=C/C=C/CCCCCCCC[C@]1(C)C[C@]2(C)OC(=O)C[C@@H]2OO1 [PLAKORTOLIDE J] ?
Output line: true (1)

Input line: And what about the compound CC/C=C/C=C/C=C/CCCCCCCC[C@@]1(C)C[C@](C)(CC(=O)O)OO1 [EPIPLAKINIC ACID F] ?
Output line: false (0)

Input line: And what about the compound C[C@]1(CC(=O)O)C[C@@](C)(CCCCCCCCC(=O)O)OO1 [EPIPLAKINIDIOIC ACID] ?
Output line: false (0)

Input line: And what about the compound CCCCCCCCCCCCCCCC[C@@](C)(O)C[C@]1(C)OC(=O)C[C@@H]1O ?
Output line: false (0)

* * *

tested on: Plasmodium falciparum; assay: Antimicrobial activity against chloroquine-resistant Plasmodium falciparum W2; type: functional, organism-based
RESULT_TYPE: IC50

Record excerpt, results attached:
Input line: Query (compound): CCCCCCCCCCCCCCCC[C@@](C)(O)C[C@](C)(O)CC(=O)OC ; field requested: IC50
Output line: > 10 µg/mL

Input line: And what about the compound CC/C=C/C=C/C=C/CCCCCCCC[C@]1(C)C[C@@](C)(CC(=O)OC)OO1 [EPIPLAKINIC ACID F METHYL ESTER] ?
Output line: 4 µg/mL

Input line: And what about the compound CC/C=C/C=C/C=C/CCCCCCCC[C@@]1(C)C[C@](C)(CC(=O)O)OO1 [EPIPLAKINIC ACID F] ?
Output line: 3 µg/mL

Input line: And what about the compound CCCCCCCCCCCCCCCC[C@@](C)(O)C[C@]1(C)OC(=O)C[C@@H]1O ?
Output line: 0.6 µg/mL

Input line: And what about the compound C[C@]1(CC(=O)O)C[C@@](C)(CCCCCCCCC(=O)O)OO1 [EPIPLAKINIDIOIC ACID] ?
Output line: 0.3 µg/mL

More entries:
Input line: Query (compound): CC/C=C/C=C/C=C/CCCCCCCC[C@]1(C)C[C@]2(C)OC(=O)C[C@@H]2OO1 [PLAKORTOLIDE J] ; field requested: IC50
Output line: > 10 µg/mL

Input line: And what about the compound CCCCCCCCCCCCCCCC[C@]1(C)C[C@@](C)(O)CC(=O)O1 ?
Output line: > 10 µg/mL

Input line: And what about the compound CCCCCCCCCCCCCCCC[C@]1(C)C[C@@](C)(CC(=O)OC)OO1 ?
Output line: > 10 µg/mL
